Target: Gastrin/cholecystokinin type B receptor (Homo sapiens)
Sequence (P32239 whole entry): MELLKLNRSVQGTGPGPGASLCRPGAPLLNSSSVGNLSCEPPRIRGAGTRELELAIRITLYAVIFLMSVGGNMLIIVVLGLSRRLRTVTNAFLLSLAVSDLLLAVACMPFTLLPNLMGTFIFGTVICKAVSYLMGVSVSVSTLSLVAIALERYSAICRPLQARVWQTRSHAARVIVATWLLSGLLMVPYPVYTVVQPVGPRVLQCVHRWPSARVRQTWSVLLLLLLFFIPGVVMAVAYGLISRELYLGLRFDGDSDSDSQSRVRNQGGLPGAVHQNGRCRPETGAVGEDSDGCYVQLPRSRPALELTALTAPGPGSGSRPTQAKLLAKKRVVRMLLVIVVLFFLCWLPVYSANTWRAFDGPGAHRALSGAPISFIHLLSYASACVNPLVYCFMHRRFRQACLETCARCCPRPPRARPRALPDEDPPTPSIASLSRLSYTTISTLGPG
Exercise: for every item that follows, state its recorded pIC50.
Please treat pIC50 as minus the base-10 logarithm of the molar concentration.

Query :: Query the reported pIC50 for Gastrin/cholecystokinin type B receptor (Homo sapiens); item: Cc1ccccc1NC(=O)NCCCC[C@H](CNC(=O)[C@@](C)(Cc1c[nH]c2ccccc12)NC(=O)OC1C2CC3CC(C2)CC1C3)NC(=O)CCC(=O)O (some centres not stated)
Result :: 7.70

Query :: Query the reported pIC50 for Gastrin/cholecystokinin type B receptor (Homo sapiens); item: Cc1ccccc1NC(=O)NCCCC[C@H](CNC(=O)[C@](C)(Cc1c[nH]c2ccccc12)NC(=O)OC1C2CC3CC(C2)CC1C3)NC(=O)CCC(=O)O (some centres not stated)
Result :: 6.75

---

Molecular target: Cholecystokinin receptor type A (Homo sapiens)
Sequence (P32238 whole entry): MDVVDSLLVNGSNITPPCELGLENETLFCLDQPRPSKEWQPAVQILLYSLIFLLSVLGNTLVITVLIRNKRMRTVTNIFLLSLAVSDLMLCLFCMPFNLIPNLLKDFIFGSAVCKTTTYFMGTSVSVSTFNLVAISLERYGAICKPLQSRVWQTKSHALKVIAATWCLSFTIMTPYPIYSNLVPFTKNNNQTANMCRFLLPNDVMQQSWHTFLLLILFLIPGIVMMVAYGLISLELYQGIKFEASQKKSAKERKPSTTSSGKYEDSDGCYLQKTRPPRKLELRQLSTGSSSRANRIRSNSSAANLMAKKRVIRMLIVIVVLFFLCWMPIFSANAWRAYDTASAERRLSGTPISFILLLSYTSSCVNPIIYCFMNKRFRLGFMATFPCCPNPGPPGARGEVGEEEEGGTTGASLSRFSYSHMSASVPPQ
Assay: Compound was evaluated for the [Ca2+] mobilization innstably transfected CHO-K1 cell lines expressing human Cholecystokinin type A receptor
Numbered stars: 1 amine (or outer) side, 2 acyl side, 3 side chain; on linkers, the order of the positions; unused ones are H or OH. Square brackets hold non-standard residues; d marks the D form. Side chains are listed from the residue outwards. Peptide text beside a SMILES is read from it. * marks the point of attachment. NMeF = CN[C@@H](Cc1ccccc1)C(=O)O; NH(2-Me-phenyl) = Cc1ccccc1N*; CO = O=C([*:1])[*:2]
readout label: pEC50
Please treat pEC50 as minus the base-10 logarithm of the molar concentration.

Query :: Query the reported pEC50 for Cholecystokinin receptor type A (Homo sapiens); item: Cc1ccccc1NC(=O)NCCCC[C@H](CNC(=O)[C@@](C)(Cc1c[nH]c2ccccc12)NC(=O)OC1C2CC3CC(C2)CC1C3)NC(=O)CCC(=O)O (some centres not stated)
Result :: 8.50

Query :: Query the reported pEC50 for Cholecystokinin receptor type A (Homo sapiens); item: CC(=O)N[C@@H](Cc1c[nH]c2ccccc12)C(=O)N[C@@H](CCCCNC(=O)Nc1ccccc1C)C(=O)N[C@@H](CC(=O)O)C(=O)N(C)[C@@H](Cc1ccccc1)C(N)=O (Ac-WK([CO-NH(2-Me-phenyl)])D[NMeF]-NH2)
Result :: 8.40

---

Target: Gastrin/cholecystokinin type B receptor (Homo sapiens, UniProt P32239)
Sequence (P32239 whole entry): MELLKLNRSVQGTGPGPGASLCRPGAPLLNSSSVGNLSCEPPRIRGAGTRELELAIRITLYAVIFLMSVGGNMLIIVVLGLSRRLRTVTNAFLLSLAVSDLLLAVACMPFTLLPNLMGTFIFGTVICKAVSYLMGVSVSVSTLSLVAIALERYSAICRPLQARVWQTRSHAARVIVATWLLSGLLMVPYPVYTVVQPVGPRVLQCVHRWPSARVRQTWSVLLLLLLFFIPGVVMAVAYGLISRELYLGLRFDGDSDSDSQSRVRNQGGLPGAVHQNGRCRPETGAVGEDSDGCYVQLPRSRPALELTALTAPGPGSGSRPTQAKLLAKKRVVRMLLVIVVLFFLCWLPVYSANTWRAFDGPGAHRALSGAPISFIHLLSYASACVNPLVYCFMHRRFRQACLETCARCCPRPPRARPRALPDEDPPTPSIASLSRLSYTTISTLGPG
Assay: Compound was evaluated for the [Ca2+] mobilization innstably transfected CHO-K1 cell lines expressing human Cholecystokinin type B receptor
readout label: EC50

Query :: For Cc1ccccc1NC(=O)NCCCC[C@H](CNC(=O)[C@@](C)(Cc1c[nH]c2ccccc12)NC(=O)OC1C2CC3CC(C2)CC1C3)NC(=O)CCC(=O)O (stereo partly specified) , what is its reported EC50?
Result :: 2510 nM

---

Target: UniProt:P32238
Test: In vitro displacement of [125I]BH-CCK-8 from cDNA of human Cholecystokinin type A receptor expressed in CHO-K1 cells
pIC50: −log10 of the molar value. Numbered stars: 1 amine (or outer) side, 2 acyl side, 3 side chain; on linkers, the order of the positions; unused ones are H or OH. Square brackets hold non-standard residues; d marks the D form. Side chains are listed from the residue outwards. Peptide text beside a SMILES is read from it. * marks the point of attachment. NMeF = CN[C@@H](Cc1ccccc1)C(=O)O; NH(2-Me-phenyl) = Cc1ccccc1N*; CO = O=C([*:1])[*:2]
# if value of pIC50 reaches 7, tag fulfilled; if it stays below, tag not fulfilled

Query :: Reported pIC50 reaches at least 7 for Cc1ccccc1NC(=O)NCCCC[C@@H](CNC(=O)CCC(=O)O)NC(=O)[C@@](C)(Cc1c[nH]c2ccccc12)NC(=O)OC1C2CC3CC(C2)CC1C3 (stereo not given in full) ?
Result :: fulfilled

Query :: Reported pIC50 reaches at least 7 for CC(=O)N[C@@H](Cc1c[nH]c2ccccc12)C(=O)N[C@@H](CCCCNC(=O)Nc1ccccc1C)C(=O)N[C@@H](CC(=O)O)C(=O)N(C)[C@@H](Cc1ccccc1)C(N)=O (Ac-WK([CO-NH(2-Me-phenyl)])D[NMeF]-NH2) ?
Result :: fulfilled

Query :: Reported pIC50 reaches at least 7 for Cc1ccccc1NC(=O)NCCCC[C@@H](CNC(=O)CCC(=O)O)NC(=O)[C@](C)(Cc1c[nH]c2ccccc12)NC(=O)OC1C2CC3CC(C2)CC1C3 (stereo not given in full) ?
Result :: not fulfilled

Query :: Reported pIC50 reaches at least 7 for Cc1ccccc1NC(=O)NCCCC[C@H](CNC(=O)[C@](C)(Cc1c[nH]c2ccccc12)NC(=O)OC1C2CC3CC(C2)CC1C3)NC(=O)CCC(=O)O (stereo not given in full) ?
Result :: not fulfilled

Query :: Reported pIC50 reaches at least 7 for Cc1ccccc1NC(=O)NCCCC[C@H](CNC(=O)[C@@](C)(Cc1c[nH]c2ccccc12)NC(=O)OC1C2CC3CC(C2)CC1C3)NC(=O)CCC(=O)O (stereo not given in full) ?
Result :: fulfilled
